Value source: patent US20250051375A1

- Target: UniProt:P19111
- Sequence (P19111 20-506): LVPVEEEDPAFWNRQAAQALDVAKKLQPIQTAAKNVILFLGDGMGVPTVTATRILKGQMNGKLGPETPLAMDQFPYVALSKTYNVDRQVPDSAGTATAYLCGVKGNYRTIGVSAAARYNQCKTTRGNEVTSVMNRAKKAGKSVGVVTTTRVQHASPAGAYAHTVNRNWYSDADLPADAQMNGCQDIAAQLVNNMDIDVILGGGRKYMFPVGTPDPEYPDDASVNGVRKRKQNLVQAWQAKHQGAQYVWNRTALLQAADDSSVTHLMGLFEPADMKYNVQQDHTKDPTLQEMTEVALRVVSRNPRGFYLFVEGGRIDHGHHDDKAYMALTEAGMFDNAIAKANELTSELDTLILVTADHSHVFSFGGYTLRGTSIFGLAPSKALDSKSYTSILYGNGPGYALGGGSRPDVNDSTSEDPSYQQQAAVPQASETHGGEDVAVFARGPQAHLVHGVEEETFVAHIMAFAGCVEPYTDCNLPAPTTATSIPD
- Method Description: BiALP: conversion by bovine intestinal alkaline phosphatase
- Type: in vitro ADME
- Stated Conditions: 2 μM substrate, 100 ng/mL iALP, Tris pH 7.8, 37° C., 60 minutes
Measured Parameter: [Compound] (nM)
Only the number, expressed in nM, is required.

The value of [Compound] measured for the compound COC(=O)N[C@H](C(=O)N[C@@H](Cc1ccc(C#Cc2cnc(N3CC4CCC(C3)N4C3COC3)nc2)cc1)[C@H](CN(Cc1c(F)cc(-c2ccn(C(F)F)n2)cc1F)NC(=O)[C@@H](NC(=O)OC)C(C)(C)C(F)(F)F)OC(=O)OCOC(=O)CC(C)(C)c1c(CC(=O)O)cc(C)cc1OP(=O)(O)O)C(C)(C)C(F)(F)F turned out to be 1351.2

For record COC(=O)N[C@H](C(=O)N[C@@H](Cc1ccc(C#Cc2cnc(N3CC4CCC(C3)N4C3COC3)nc2)cc1)[C@H](CN(Cc1c(F)cc(-c2ccn(C(F)F)n2)cc1F)NC(=O)[C@@H](NC(=O)OC)C(C)(C)C(F)(F)F)OC(=O)OCOC(=O)CC(C)(C)c1c(CC(=O)NCCS(=O)(=O)O)cc(C)cc1OP(=O)(O)O)C(C)(C)C(F)(F)F the listed [Compound] is 1281.9

Quick note, [Compound] for COC(=O)N[C@H](C(=O)N[C@@H](Cc1ccc(C#Cc2cnc(N3CC4CCC(C3)N4C3COC3)nc2)cc1)[C@H](CN(Cc1c(F)cc(-c2ccn(C(F)F)n2)cc1F)NC(=O)[C@@H](NC(=O)OC)C(C)(C)C(F)(F)F)OC(=O)CC(C)(C)c1c(CC(=O)N2CC(C(=O)O)C2)cc(C)cc1OP(=O)(O)O)C(C)(C)C(F)(F)F landed at 1852.3

Input COC(=O)N[C@H](C(=O)N[C@@H](Cc1ccc(C#Cc2cnc(N3CC4CCC(C3)N4C3COC3)nc2)cc1)[C@H](CN(Cc1c(F)cc(-c2ccn(C(F)F)n2)cc1F)NC(=O)[C@@H](NC(=O)OC)C(C)(C)C(F)(F)F)OC(=O)OCOC(=O)CC(C)(C)c1c(CC(=O)N[C@@H](CC(N)=O)C(=O)O)cc(C)cc1OP(=O)(O)O)C(C)(C)C(F)(F)F . Output [Compound]: 827.8

Entry COC(=O)N[C@H](C(=O)N[C@@H](Cc1ccc(C#Cc2cnc(N3CC4CCC(C3)N4C3COC3)nc2)cc1)[C@H](CN(Cc1c(F)cc(-c2ccn(C(F)F)n2)cc1F)NC(=O)[C@@H](NC(=O)OC)C(C)(C)C(F)(F)F)OC(=O)CC(C)(C)c1c(CC(=O)NCc2ccc(S(N)(=O)=O)cc2)cc(C)cc1OP(=O)(O)O)C(C)(C)C(F)(F)F ; [Compound] = 2213.4

The recorded [Compound] for entry COC(=O)N[C@H](C(=O)N[C@@H](Cc1ccc(C#Cc2cnc(N3CC4CCC(C3)N4C3COC3)nc2)cc1)[C@H](CN(Cc1c(F)cc(-c2ccn(C(F)F)n2)cc1F)NC(=O)[C@@H](NC(=O)OC)C(C)(C)C(F)(F)F)OC(=O)CC(C)(C)c1c(CC(=O)NCCCS(=O)(=O)O)cc(C)cc1OP(=O)(O)O)C(C)(C)C(F)(F)F equals 2023.7
